Items are presented alongside their recorded PRNT90.
Target: SARS-CoV-2 spike on live SARS-CoV-2 virus (SARS-CoV-2, UniProt P0DTC2 14-1273)
Assay: cell-based or functional assay

- binder: "variant 6-78 (Fc fusion) VHH: EVQLVESGGGLVQPGGSLRLSCAASGRTYDAMGWFRQAPGKEREFVASVTSGGYTHYADSVKGRFTISADNSKNTAYLQMNSLKPEDTAVYYCAKFGRKIVGATELDYWGQGTLVTVSS"
  PRNT90: "250 ng/mL"
- binder: "variant 6-73 (Fc fusion) VHH: EVQLVESGGGLVQPGGSLRLSCAASGHTFSGYAMGWFRQAPGKEREFVAVITREGSTYYADSVKGRFTISADNSKNTAYLQMNSLKPEDTAVYYCARLGGEGFDYWGQGTLVTVSS"
  PRNT90: "250 ng/mL"

Values were extracted from patent US20210355194A1.
